target: ligand binding domain of human ROR gamma (Homo sapiens, UniProt P51449); construct: NM_001001523; expressed in transfected cells; host or cells: HEK293T; assay: ROR gamma reporter gene assay (GAL4-RORγ LBD luciferase, Dual-Glo); type: cell-based; settings: HEK293T cells transfected with pM-ROR gamma, 8 concentrations 3.5 nM to 10.5 μM, 24 h incubation; read-out: result (pIC50, inhibition of RORγ transcriptional activity) (converted)
Label scheme, based on IC50: lower: < 30000 pM; middle: ≥ 30000 pM and < 500000 pM; upper: ≥ 500000 pM

Below are worked cases with known answers.
COc1cccc(Cl)c1C(=O)CN(CC1CC(C)(C)C1)C(=O)c1cnn([C@H]2CC[C@](C)(C(=O)O)CC2)c1C(F)(F)F; lower
Cn1nc(Cl)c(C(=O)CN(Cc2cc(F)cc(F)c2)C(=O)c2cnn([C@H]3CC[C@H](C(=O)O)CC3)c2C(F)(F)F)c1Cl; upper
CC1(C)[C@@H]2C[C@H](N(CC(=O)c3c(Cl)cncc3Cl)C(=O)c3cnn([C@H]4CC[C@H](C(=O)O)CC4)c3C(F)(F)F)C[C@@H]21 [Example 211]; lower
CC1(C)[C@@H]2C[C@H](N(C[C@H](O)c3ncccc3Cl)C(=O)c3cnn([C@H]4CC[C@](C)(C(=O)O)CC4)c3C(F)(F)F)C[C@@H]21; middle

GET /class?item= C[C@]1(C(=O)O)CC[C@H](n2ncc(C(=O)N(CC(=O)c3c(Cl)cc(F)cc3Cl)C3CC4CCC(C3)N4)c2C(F)(F)F)CC1 (some centres unmarked)
upper

# bin label for O=C(CN(Cc1cc(F)cc(F)c1)C(=O)c1cnn([C@H]2CC[C@H](C(=O)O)CC2)c1C(F)(F)F)c1ccccc1Cl
middle

Exercise: read the entry CC1(C)CCC(N(CC(=O)c2c(Cl)cncc2Cl)C(=O)c2cnn([C@H]3CC[C@H](C(=O)O)CC3)c2C(F)(F)F)CC1 and state which class it falls under.
middle

Hi there! Could you help me figure out the category for CC1(C)CCC(N(CC(=O)c2c(Cl)cncc2Cl)C(=O)c2cnn([C@H]3CC[C@](C)(C(=O)O)CC3)c2C(F)F)CC1 please?
upper

Class label required: CC1(C)[C@@H]2C[C@H](N(C[C@@H](O)c3c(F)cccc3Cl)C(=O)c3cnn([C@H]4CC[C@](C)(C(=O)O)CC4)c3C(F)(F)F)C[C@@H]21
lower

====

Entries and their measured IC50 follow.
Molecular target: ligand binding domain of human ROR gamma (Homo sapiens, UniProt P51449)
Construct: NM_001001523; expressed in transfected cells; host or cells: HEK293T
Sequence (P51449 247-497 isoform P51449-2): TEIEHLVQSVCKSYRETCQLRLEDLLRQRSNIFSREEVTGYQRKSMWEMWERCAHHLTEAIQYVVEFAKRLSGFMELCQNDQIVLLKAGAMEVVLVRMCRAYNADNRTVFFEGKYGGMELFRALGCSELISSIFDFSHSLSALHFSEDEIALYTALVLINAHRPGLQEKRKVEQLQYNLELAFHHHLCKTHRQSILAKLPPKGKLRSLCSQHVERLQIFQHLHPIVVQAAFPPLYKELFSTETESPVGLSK
Assay: ROR gamma reporter gene assay (GAL4-RORγ LBD luciferase, Dual-Glo)
Assay type: cell-based
Settings: HEK293T cells transfected with pM-ROR gamma, 8 concentrations 3.5 nM to 10.5 μM, 24 h incubation; read-out: result (pIC50, inhibition of RORγ transcriptional activity) (converted)
Field format: number, assumed pM, no unit text.

Illustrative cases are given below, each with its answer.
O=C(CN(Cc1cc(F)cc(F)c1)C(=O)c1cnn([C@H]2CC[C@H](O)CC2)c1C(F)(F)F)c1c(Cl)cncc1Cl [Example 85]; 1.48e+06
C[C@]1(C(=O)O)CC[C@H](n2ncc(C(=O)N(Cc3cc(F)cc(F)c3)C[C@H](F)c3c(Cl)cccc3Cl)c2C(F)(F)F)CC1 [Example 138]; 7240
Cc1cc(C)c(C(=O)CN(Cc2cc(F)cc(F)c2)C(=O)c2cnn([C@H]3CC[C@H](C(=O)O)CC3)c2C(F)(F)F)c(Cl)c1 [Example 269]; 8130
CC1(C)[C@@H]2C[C@H](N(CC(=O)c3c(Cl)cncc3Cl)C(=O)c3cnn([C@H]4CC[C@H](C(=O)O)CC4)c3C(F)(F)F)C[C@@H]21 [Example 264]; 8130
Cc1cc(Cl)c(C(=O)CN(CC23CCC(C)(CC2)O3)C(=O)c2cnn(C34CCC(C(=O)O)(CC3)CC4)c2C(F)(F)F)c(Cl)c1 [Example 261]; 4570

Quote IC50 reported for O=C(c1c(C(F)(F)F)nn([C@H]2CC[C@H](C(=O)O)CC2)c1C(F)(F)F)N(CCc1c(Cl)cncc1Cl)Cc1ccc(F)cc1 [Example 412] please.
1.12e+06

Note down IC50 recorded for CC12CCC(CN(CC(=O)c3c(Cl)cc(F)cc3Cl)C(=O)c3cnn([C@H]4CC[C@H](C(=O)O)CC4)c3C(F)(F)F)(CC1)C2 [Example 193]
6460
